- Tested on: LRV1 (LgyLRV1 capsid levels)
- Assay Protocol: organism not typed
- Run Parameters: LgyLRV1+, tested at 100 μM, 2 days
Measured Metric: LRV1 capsid (geometric mean FU)
Give the value in FU but do not write FU after it.

Documented LRV1 capsid (geometric mean FU) of [H]/N=C(/N)NS(=O)(=O)c1ccc(N)cc1 : 260

Documented LRV1 capsid (geometric mean FU) of Oc1ncnc2[nH]ncc12 : 90

Documented LRV1 capsid (geometric mean FU) of C[C@@]1(O)[C@H](O)[C@@H](CO)O[C@H]1n1ccc(N)nc1=O : 162

Documented LRV1 capsid (geometric mean FU) of O=c1[nH]cnc2nn[nH]c12 : 251

Documented LRV1 capsid (geometric mean FU) of OC[C@H]1O[C@@H](n2cnc3c(O)ncnc32)[C@H](F)[C@@H]1O : 255

Documented LRV1 capsid (geometric mean FU) of C=C1[C@H](CO)[C@@H](O)C[C@@H]1n1cnc2c(=O)[nH]c(N)nc21 : 119

Documented LRV1 capsid (geometric mean FU) of C[C@@]1(O)[C@H](O)[C@@H](CO)O[C@H]1n1cnc2c(N)ncnc21 : 19

Documented LRV1 capsid (geometric mean FU) of NC(=O)c1ncn([C@@H]2O[C@H](CO)[C@@H](O)[C@H]2O)n1 : 162

* * *

- Tested on: LRV1 (LgyLRV1 capsid levels)
- Assay Protocol: organism not typed
- Run Parameters: LgyLRV1+, tested at 100 μM, 2 days
Mark each entry rule met if its LRV1 capsid (geometric mean FU) sits below 200 FU, and rule not met for all others.

Field: below-cutoff. Rule: recorded LRV1 capsid (geometric mean FU) strictly less than 200 FU. Subject: C[C@@]1(O)[C@H](O)[C@@H](CO)O[C@H]1n1ccc2c(N)ncnc21 rule met

Field: below-cutoff. Rule: recorded LRV1 capsid (geometric mean FU) strictly less than 200 FU. Subject: CC(C)OC(=O)[C@H](C)N[P@](=O)(OC[C@H]1O[C@@H](n2ccc(=O)[nH]c2=O)[C@](C)(F)[C@@H]1O)Oc1ccccc1 rule met

Field: below-cutoff. Rule: recorded LRV1 capsid (geometric mean FU) strictly less than 200 FU. Subject: O=c1ccn([C@@H]2O[C@H](CO)[C@@H](O)[C@H]2F)c(=O)[nH]1 rule not met

Field: below-cutoff. Rule: recorded LRV1 capsid (geometric mean FU) strictly less than 200 FU. Subject: Cc1cn([C@H]2C=C[C@@H](CO)O2)c(=O)[nH]c1=O rule not met

Field: below-cutoff. Rule: recorded LRV1 capsid (geometric mean FU) strictly less than 200 FU. Subject: Nc1ncnc2c1ncn2[C@@H]1O[C@H](CO)[C@@H](O)[C@H]1F rule not met

* * *

Record form. Attribute: LRV1 capsid (geometric mean FU). Fill in for each entry.
- System: LRV1 (LgyLRV1 capsid levels)
- Assay Protocol: organism not typed
- Run Parameters: LgyLRV1+, tested at 100 μM, 2 days
Give the value in FU but do not write FU after it.

Documented LRV1 capsid (geometric mean FU) of O=c1[nH]cnc2c1ncn2[C@H]1CC[C@@H](CO)O1 : 182

Documented LRV1 capsid (geometric mean FU) of NC(=O)c1nc(F)c[nH]c1=O : 161

Documented LRV1 capsid (geometric mean FU) of C[C@@]1(O)[C@H](O)[C@@H](CO)O[C@H]1n1cnc2c(=O)[nH]c(N)nc21 : 252

Documented LRV1 capsid (geometric mean FU) of Nc1ccn([C@@H]2O[C@H](CO)[C@@H](O)[C@H]2F)c(=O)n1 : 230

Documented LRV1 capsid (geometric mean FU) of O=C(O)P(=O)(O)O : 162

Documented LRV1 capsid (geometric mean FU) of [N-]=[N+]=N[C@]1(CO)O[C@@H](n2ccc(N)nc2=O)[C@H](O)[C@@H]1O : 114

Documented LRV1 capsid (geometric mean FU) of Nc1nc2c(ncn2[C@@H]2O[C@H](CO)[C@@H](O)[C@H]2F)c(=O)[nH]1 : 326

Documented LRV1 capsid (geometric mean FU) of C[C@H]1O[C@@H](n2cc(F)c(=O)[nH]c2=O)[C@H](O)[C@@H]1O : 234

* * *

- System: LRV1 (LgyLRV1 capsid levels)
- Assay Protocol: organism not typed
Where LRV1 capsid (geometric mean FU) equals or exceeds 300 FU, the correct label is Met; where it does not, the label is Not met.

Could you tell me if the measured LRV1 capsid (geometric mean FU) of CC(C)C[C@H](NC(=O)[C@H]1O[C@@H]1C(=O)O)C(=O)NCCCCN=C(N)N reaches 300 FU or more? Not met

Could you tell me if the measured LRV1 capsid (geometric mean FU) of O=c1nc[nH]c(=O)[nH]1 reaches 300 FU or more? Not met

Could you tell me if the measured LRV1 capsid (geometric mean FU) of O=c1[nH]cc(F)c(=O)[nH]1 reaches 300 FU or more? Met

Could you tell me if the measured LRV1 capsid (geometric mean FU) of O=c1cn[nH]c(=O)[nH]1 reaches 300 FU or more? Not met

Could you tell me if the measured LRV1 capsid (geometric mean FU) of CN(C)c1ncnc2c1ncn2[C@@H]1O[C@H](CO)[C@@H](O)[C@H]1O reaches 300 FU or more? Not met

Could you tell me if the measured LRV1 capsid (geometric mean FU) of Nc1nc2nn[nH]c2c(=O)[nH]1 reaches 300 FU or more? Not met

* * *

- System: LRV1 (LgyLRV1 capsid levels)
- Assay Protocol: microbe, parasite or virus in culture
- Run Parameters: 48 h, read-out: Percent control (LRV1 capsid)
Measured Metric: activity at 100 µM (%)
Give the value in % but do not write % after it.

Documented activity at 100 µM of Cc1cn([C@H]2C[C@H](N=[N+]=[N-])[C@@H](CO)O2)c(=O)[nH]c1=O : 74

Documented activity at 100 µM of C[C@@]1(O)[C@H](O)[C@@H](CO)O[C@H]1n1ccc2c(N)ncnc21 : 10

Documented activity at 100 µM of O=c1[nH]cnc2nn[nH]c12 : 95

Documented activity at 100 µM of CN(C)c1ncnc2c1ncn2[C@@H]1O[C@H](CO)[C@@H](O)[C@H]1O : 108

Documented activity at 100 µM of Oc1ncnc2[nH]ncc12 : 34

Documented activity at 100 µM of CC(C)OC(=O)[C@H](C)N[P@](=O)(OC[C@H]1O[C@@H](n2ccc(=O)[nH]c2=O)[C@](C)(F)[C@@H]1O)Oc1ccccc1 : 61

Documented activity at 100 µM of O=c1[nH]cc(F)c(=O)[nH]1 : 193

Documented activity at 100 µM of Cc1cn([C@H]2C=C[C@@H](CO)O2)c(=O)[nH]c1=O : 83

Documented activity at 100 µM of Nc1nc2c(ncn2[C@@H]2O[C@H](CO)[C@@H](O)[C@H]2F)c(=O)[nH]1 : 123

Documented activity at 100 µM of Nc1ccn([C@@H]2O[C@H](CO)[C@@H](O)[C@H]2F)c(=O)n1 : 87

Documented activity at 100 µM of C=C1[C@H](CO)[C@@H](O)C[C@@H]1n1cnc2c(=O)[nH]c(N)nc21 : 45

Documented activity at 100 µM of Nc1nc2nn[nH]c2c(=O)[nH]1 : 100

Documented activity at 100 µM of C[C@@]1(O)[C@H](O)[C@@H](CO)O[C@H]1n1cnc2c(N)ncnc21 : 7

Documented activity at 100 µM of Nc1ncnc2c1ncn2[C@@H]1O[C@H](CO)[C@@H](O)[C@H]1F : 97

Documented activity at 100 µM of O=c1[nH]cnc2c1ncn2[C@H]1CC[C@@H](CO)O1 : 68

Documented activity at 100 µM of C[C@H]1O[C@@H](n2cc(F)c(=O)[nH]c2=O)[C@H](O)[C@@H]1O : 88

Documented activity at 100 µM of OC[C@H]1O[C@@H](n2cnc3c(O)ncnc32)[C@H](F)[C@@H]1O : 96

Documented activity at 100 µM of [N-]=[N+]=N[C@]1(CO)O[C@@H](n2ccc(N)nc2=O)[C@H](O)[C@@H]1O : 43

Documented activity at 100 µM of O=c1cn[nH]c(=O)[nH]1 : 102

Documented activity at 100 µM of [H]/N=C(/N)NS(=O)(=O)c1ccc(N)cc1 : 98

Documented activity at 100 µM of O=C(O)P(=O)(O)O : 61

Documented activity at 100 µM of NC(=O)c1nc(F)c[nH]c1=O : 60

Documented activity at 100 µM of O=c1nc[nH]c(=O)[nH]1 : 95

Documented activity at 100 µM of O=c1ccn([C@@H]2O[C@H](CO)[C@@H](O)[C@H]2F)c(=O)[nH]1 : 88

Documented activity at 100 µM of NC(=O)c1ncn([C@@H]2O[C@H](CO)[C@@H](O)[C@H]2O)n1 : 61
